Where do these numbers come from? They come from patent US20230374007A1.

I'd appreciate it if you could supply log10 IC50 values for the items below.
TARGET OR TEST SYSTEM: cereblon (CRBN)—DNA damage protein 1 (DDB1) complex (Homo sapiens)
Construct: encoding amino acid residues 1 to 442 (Uniprot Q96SW2); hexahistidine (N); thrombin cleavage site (N); made in house; host or cells: Sf9 insect cells (baculovirus co-infection)
Sequence (Q96SW2 with tags, fused parts or gaps): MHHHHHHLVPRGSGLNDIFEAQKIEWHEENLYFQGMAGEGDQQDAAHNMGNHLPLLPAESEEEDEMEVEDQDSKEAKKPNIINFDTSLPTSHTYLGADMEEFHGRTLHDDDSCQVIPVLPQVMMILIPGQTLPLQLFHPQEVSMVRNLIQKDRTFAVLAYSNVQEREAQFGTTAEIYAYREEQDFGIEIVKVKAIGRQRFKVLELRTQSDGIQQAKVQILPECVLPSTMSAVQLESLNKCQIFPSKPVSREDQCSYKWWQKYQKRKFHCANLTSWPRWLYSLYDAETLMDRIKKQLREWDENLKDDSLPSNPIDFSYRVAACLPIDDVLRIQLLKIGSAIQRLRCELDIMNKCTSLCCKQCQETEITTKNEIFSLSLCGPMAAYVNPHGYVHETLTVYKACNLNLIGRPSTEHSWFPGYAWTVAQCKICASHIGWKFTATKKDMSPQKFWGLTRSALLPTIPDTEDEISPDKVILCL
METHOD: Cereblon HTRF binding assay
Kindly note that the scale is log10 and the underlying IC50 is in µM.

# query: log10 IC50 | item CN(C)c1cc(N2CCC(=O)NC2=O)cc2[nH]ccc12 [Example 133] | system: cereblon (CRBN)—DNA damage protein 1 (DDB1) complex (Homo sapiens) 0.45

# query: log10 IC50 | item O=c1[nH]c(=O)n(-c2ccc3cc[nH]c3c2)cc1F [Example 14] | system: cereblon (CRBN)—DNA damage protein 1 (DDB1) complex (Homo sapiens) -0.29

# query: log10 IC50 | item O=C1CCN(c2ccc3nn(C4CCNCC4)cc3c2)C(=O)N1 [Example 107] | system: cereblon (CRBN)—DNA damage protein 1 (DDB1) complex (Homo sapiens) 0.58

# query: log10 IC50 | item O=C1CCN(c2cccc3[nH]ncc23)C(=O)N1 [Example 34] | system: cereblon (CRBN)—DNA damage protein 1 (DDB1) complex (Homo sapiens) -0.20

# query: log10 IC50 | item O=C1CCN(c2cccc3[nH]ccc23)C(=O)N1 [Example 18] | system: cereblon (CRBN)—DNA damage protein 1 (DDB1) complex (Homo sapiens) -0.46

# query: log10 IC50 | item O=C1CCN(c2ccc3[nH]cc(N4CCNCC4)c3c2)C(=O)N1 [Example 77] | system: cereblon (CRBN)—DNA damage protein 1 (DDB1) complex (Homo sapiens) -0.25

# query: log10 IC50 | item CN1CCc2cc(N3CCC(=O)NC3=O)ccc21 [Example 21] | system: cereblon (CRBN)—DNA damage protein 1 (DDB1) complex (Homo sapiens) -0.11

# query: log10 IC50 | item CNC(=O)Cc1cc2ccc(N3CCC(=O)NC3=O)cc2[nH]1 [Example 67] | system: cereblon (CRBN)—DNA damage protein 1 (DDB1) complex (Homo sapiens) -0.01

# query: log10 IC50 | item O=C1CCN(c2ccc3c(c2)CNC3)C(=O)N1 [Example 24] | system: cereblon (CRBN)—DNA damage protein 1 (DDB1) complex (Homo sapiens) 0.95

# query: log10 IC50 | item CN1CCC(c2c[nH]c3cc(N4CCC(=O)NC4=O)ccc23)CC1 [Example 117] | system: cereblon (CRBN)—DNA damage protein 1 (DDB1) complex (Homo sapiens) 0.33

# query: log10 IC50 | item O=C1CCN(c2cnc3ccoc3c2)C(=O)N1 [Example 37] | system: cereblon (CRBN)—DNA damage protein 1 (DDB1) complex (Homo sapiens) 0.49

# query: log10 IC50 | item Cn1ccc2cc(N3CCC(=O)NC3=O)cnc21 [Example 11] | system: cereblon (CRBN)—DNA damage protein 1 (DDB1) complex (Homo sapiens) 1.43

# query: log10 IC50 | item Cn1cc(N2CCNCC2)c2ccc(N3CCC(=O)NC3=O)cc21 [Example 74] | system: cereblon (CRBN)—DNA damage protein 1 (DDB1) complex (Homo sapiens) 0.58

# query: log10 IC50 | item CN1CCC(c2cc3c(N4CCC(=O)NC4=O)cccc3n2C)CC1 [Example 89] | system: cereblon (CRBN)—DNA damage protein 1 (DDB1) complex (Homo sapiens) 0.08

# query: log10 IC50 | item Cn1c(C2CCNCC2)cc2ccc(N3CCC(=O)NC3=O)cc21 [Example 84] | system: cereblon (CRBN)—DNA damage protein 1 (DDB1) complex (Homo sapiens) -0.45

# query: log10 IC50 | item O=C1CCN(c2ccc3c(c2)NCC3)C(=O)N1 [Example 22] | system: cereblon (CRBN)—DNA damage protein 1 (DDB1) complex (Homo sapiens) -0.31

# query: log10 IC50 | item O=C1CCN(c2ccc3cn[nH]c3c2)C(=O)N1 [Example 42] | system: cereblon (CRBN)—DNA damage protein 1 (DDB1) complex (Homo sapiens) 0.32

# query: log10 IC50 | item CN1CCCc2cc(N3CCC(=O)NC3=O)ccc21 [Example 27] | system: cereblon (CRBN)—DNA damage protein 1 (DDB1) complex (Homo sapiens) 0.02

# query: log10 IC50 | item COc1c(N2CCC(=O)NC2=O)ccc2cc[nH]c12 [Example 62] | system: cereblon (CRBN)—DNA damage protein 1 (DDB1) complex (Homo sapiens) 0.33

# query: log10 IC50 | item CN1Cc2ccc(N3CCC(=O)NC3=O)cc2C1=O [Example 10] | system: cereblon (CRBN)—DNA damage protein 1 (DDB1) complex (Homo sapiens) 0.90

# query: log10 IC50 | item O=c1ccn(-c2ccc3cc[nH]c3c2)c(=O)[nH]1 [Example 13] | system: cereblon (CRBN)—DNA damage protein 1 (DDB1) complex (Homo sapiens) -0.12
